system: HepaRG; test: LDH release cytotoxicity, % of total lysis control; higher = more cytotoxic; conditions: 0.1 µM; 48 h
quantity.name: LDH release cytotoxicity (%)
Give bare numbers, in %.

Consider the reported LDH release cytotoxicity for these molecules:
1) CN(C)c1ccc(C(=C2C=CC(=[N+](C)C)C=C2)c2ccc(N(C)C)cc2)cc1 = -2.46
2) Clc1ccc(C(c2ccc(Cl)cc2)C(Cl)(Cl)Cl)cc1 = 0.0911
3) CC1CC(C)C(=O)C(C(O)CC2CC(=O)NC(=O)C2)C1 (centres undefined) [Cycloheximide] = -0.691
4) CC(C)=CCCC(C)CCO (centres undefined) = -2.94

Hi team, please reply with LDH release cytotoxicity for each item in this list.
1. CCCCCCC(=O)O
2. CC(C)N(Cc1ccccc1)C(=O)C(C)(C)C
3. COC(=O)N(OC)c1ccccc1COc1ccn(-c2ccc(Cl)cc2)n1
4. CC#CC1(O)CCC2C3CCC4=CC(=O)CCC4=C3C(c3ccc(N(C)C)cc3)CC21C (centres undefined)
5. COC(=O)c1c(Cl)c(Cl)c(C(=O)OC)c(Cl)c1Cl
6. Nc1nc2nc[nH]c2c(=S)[nH]1

Return:
1. -1.55
2. -1.54
3. -1.43
4. -1.11
5. -0.884
6. -2.6

Hi team, please reply with LDH release cytotoxicity for each item in this list.
1. CCc1cccc(CC)c1N
2. O=[N+]([O-])C(CO)(CO)CO [2-(Hydroxymethyl)-2-nitro-1,3-propanediol]
3. OC(c1ccc(Cl)cc1)(c1cncnc1)c1ccccc1Cl (centres undefined)
4. COC(=O)CCC(=O)OC [Dimethyl succinate]
5. C=C(C)C1Cc2c(ccc3c2OC2COc4cc(OC)c(OC)cc4C2C3=O)O1 (centres undefined)
6. O=C(O)Cn1c(=O)n(Cc2ccc(Br)cc2F)c(=O)c2ccc(Cl)cc21
7. O=Cc1ccccc1C=O
8. ClC1(Cl)C2(Cl)C3(Cl)C4(Cl)C(Cl)(Cl)C5(Cl)C3(Cl)C1(Cl)C5(Cl)C24Cl (centres undefined)

Return:
1. -2.24
2. -1.5
3. -0.827
4. -0.897
5. -3.52
6. -0.293
7. -0.945
8. -1.3

Enquiry: Write LDH release cytotoxicity of CCCCCCCCCC ; system used: HepaRG
Return: -2.33

###

Please respond with reported LDH release cytotoxicity for every item in the list.
system: HepaRG; test: LDH release cytotoxicity, % of total lysis control; higher = more cytotoxic; details: 0.915 µM; 48 h
Counter-ions that a name gives are not always drawn.
One number for each entry, in %.

Consider the reported LDH release cytotoxicity for these molecules:
1. CCC(=C(c1ccccc1)c1ccc(OCCN(C)C)cc1)c1ccccc1 [Tamoxifen citrate] = -1.01
2. Cn1cc(-c2ccccc2)c(=O)c(-c2cccc(C(F)(F)F)c2)c1 = -2.56
3. CN(C)N=O = -1.29

# input for lookup
Enquiry: Return LDH release cytotoxicity for the following molecule: CCOC(=O)COc1ccc2c(c1)CC(NCC(O)c1cccc(Cl)c1)CC2 (centres undefined)
Return: -1.71

###

Please respond with reported LDH release cytotoxicity for every item in the list.
test system: HepaRG; assay: LDH release cytotoxicity, % of total lysis control; higher = more cytotoxic; settings: 1 µM; 48 h
Where a name gives a salt, the structure may show the parent alone.
Numbers only, in %.

Consider the reported LDH release cytotoxicity for these compounds:
1. CCOc1ccc2c(c1)C(C)=CC(C)(C)N2 [Ethoxyquin] = -1.45
2. Cc1cccc2ccccc12 [1-Methylnaphthalene] = -3.13
3. CC1COC(Cn2cncn2)(c2ccc(Oc3ccc(Cl)cc3)cc2Cl)O1 (stereo not drawn) [Difenoconazole] = -1.47

Hi team, please reply with LDH release cytotoxicity for each item in this list.
1. Clc1ccc(C(c2ccc(Cl)cc2)C(Cl)(Cl)Cl)cc1 [Dichlorodiphenyltrichloroethane]
2. CCCCOC(=O)CC(CC(=O)OCCCC)(OC(C)=O)C(=O)OCCCC [Acetyl tributyl citrate]
3. Clc1ccc(C(Cl)(Cl)Cl)cc1 [4-Chlorobenzotrichloride]
4. CC(C)CCCCCCOC(=O)C1CCCCC1C(=O)OCCCCCCC(C)C (stereo not drawn) [Diisononyl cyclohexane-1,2-dicarboxylate]
5. CC(C)COC(=O)CCCCC(=O)OCC(C)C [Diisobutyl adipate]

Return:
0.105
-1.86
-1.68
-0.000557
-2.26

###

tested on: HepaRG; assay: LDH release cytotoxicity, % of total lysis control; higher = more cytotoxic; settings: 0.3162278 µM; 48 h
quantity.name: LDH release cytotoxicity (%)
Numbers only, in %.

1. CC(=O)N1CCN(c2ccc(OCC3COC(Cn4ccnc4)(c4ccc(Cl)cc4Cl)O3)cc2)CC1 (stereo not given) = -2.22
2. Clc1ccccc1-c1nnc(-c2ccccc2Cl)nn1 = -0.246
3. CC(C)(C)c1ccccc1O = -1.22
4. OCCCBr = -1.14
5. CNC(=O)Oc1cccc2ccccc12 = -1.28

Hi team, please reply with LDH release cytotoxicity for each item in this list.
1. CC(=O)C(C)=CC1C(C)=CCCC1(C)C (stereo not given)
2. C=C(C)C(=O)OCCC(F)(F)C(F)(F)C(F)(F)C(F)(F)C(F)(F)C(F)(F)F [6:2 Fluorotelomer methacrylate]
3. Nc1cc(Cl)cc(C(=O)O)c1Cl
4. Nc1cccc2c(N)cccc12
5. CCOP(=S)(OCC)SCSC(C)(C)C

Return:
-1.73
0.518
-0.351
-1.58
-1.15

Hi team, please reply with LDH release cytotoxicity for each item in this list.
1. Cc1[nH]nc2c1N=C(c1ccccc1Cl)c1cc([N+](=O)[O-])ccc1N2
2. CC(Oc1ccc(CNC(=O)c2cccnc2Oc2ccc3c(c2)OCO3)c(F)c1)C(=O)O (stereo not given)
3. Cc1cc(-c2ccc(N)c(C)c2)ccc1N
4. CS(=O)(=O)c1ccc(C(CC2CCC(=O)C2)C(=O)Nc2cnccn2)cc1Cl (stereo not given)

Return:
[-0.522, -1.04, -1.35, -0.661]

###

Please respond with reported LDH release cytotoxicity for every item in the list.
system: HepaRG; assay: LDH release cytotoxicity, % of total lysis control; higher = more cytotoxic; settings: 1.5811388 µM; 48 h
One number for each entry, in %.

Hi team, please reply with LDH release cytotoxicity for each item in this list.
1. CCCSP(=O)(OCC)Oc1ccc(Br)cc1Cl (stereo not given)
2. CC12CCC3c4ccc(O)cc4CCC3C1CCC2O (stereo not given)

Return:
1: -6.7; 2: -1.1

Hi team, please reply with LDH release cytotoxicity for each item in this list.
1. Oc1ccc2c(c1)OCC(N1CCC(O)(c3ccc(F)cc3)CC1)C2O (stereo not given)
2. Cc1nc(C)nc(N2CC(C)N(c3ccnc(C(C)O)n3)C(C)C2)n1 (stereo not given)
3. C=CN1CCCC1=O

Return:
0.298
-0.835
-2.96

###

test system: HepaRG; assay: LDH release cytotoxicity, % of total lysis control; higher = more cytotoxic; details: 100.5 µM; 48 h
quantity.name: LDH release cytotoxicity
Please append the unit to your numeric answer.

Consider the reported LDH release cytotoxicity for these compounds:
1) CCCC(=NOCC)C1C(=O)CC(CC(C)SCC)CC1=O (stereo unspecified) [Sethoxydim] = 0.566%
2) CCCCOC(=O)CCCCC(=O)OCCCC [Dibutyl adipate] = 2.35%
3) N#Cc1nn(-c2c(Cl)cc(C(F)(F)F)cc2Cl)c(N)c1S(=O)C(F)(F)F (stereo unspecified) [Fipronil] = 59.8%
4) C=CCOC(=O)C(C)(C)OC(=O)c1cc(-n2c(=O)cc(C(F)(F)F)n(C)c2=O)ccc1Cl [Butafenacil] = 1.19%
5) CC(C)CCO [Isopentyl alcohol] = -0.0999%

Enquiry: Return LDH release cytotoxicity for the following compound: CC(=O)O [Acetic acid]
Return: 1.25%

###

system: HepaRG; experiment: LDH release cytotoxicity, % of total lysis control; higher = more cytotoxic; settings: 1 µM; 48 h
quantity.name: LDH release cytotoxicity (%)
Give bare numbers, in %.

Consider the reported LDH release cytotoxicity for these compounds:
1. Oc1cccc(O)c1 = -1.17
2. Cc1c2ccccc2c(C)c2c1ccc1ccccc12 = -1.27
3. CCOc1cccc(C2(N3CCN(c4ccccc4)CC3)CCC(C)CC2)c1 (centres undefined) = -2.73
4. CCCCCCCCCCCCCCC = -1.27
5. C=C(C)C(=O)[O][Sn]([CH2]CCC)([CH2]CCC)[CH2]CCC [Tributyltin methacrylate] = -1.5
6. O=NN(c1ccccc1)c1ccccc1 = -1.63

Hi team, please reply with LDH release cytotoxicity for each item in this list.
1. CCCCC(CC)COC(=O)CCCCCCCC(=O)OCC(CC)CCCC (centres undefined) [Bis(2-ethylhexyl) nonanedioate]
2. Cc1ccc(S(=O)(=O)O)cc1C [Sodium xylenesulfonate]
3. CCN(CC)CCNc1ccc(CNC=O)c2sc3ccc(OC)cc3c(=O)c12

Return:
1. -3
2. -1.21
3. -1.41
